These entries and their values trace back to PubChem BioAssay AID1159580.

Reported normalized growth values follow for various molecules
PROTOCOL DESCRIPTION: chemical genetic growth profiling, strain panel (AID 1159580);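 further: tested at 20 µM; growth read once vehicle control cultures reached saturation at 30 °C; 1 = growth at the plate median or of vehicle wells; lower values mean less growth of the strain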
SETTINGS: S. cerevisiae deletion strains, growth OD, locus YDL040C, strain nat1, active compounds read low
The whole screen tested about 5,500 compounds, of which about 2,000 (36%) were called active. Not shown: some 18% with an inconclusive outcome. The list shows a part of the results.

Please review the following examples before continuing.
- MOLECULE: "CC(=O)O[C@]1(C(C)=O)CCC2C3C[C@H](C)C4=CC(=O)CC[C@]4(C)C3CC[C@@]21C (some centres not stated)"
  ASSAY READOUT: "normalized growth"
  READING: "0.971 (inactive)"
- MOLECULE: "CCCCOc1ccc(OCCCN2CCOCC2)cc1"
  ASSAY READOUT: "normalized growth"
  READING: "0.987 (inactive)"
- MOLECULE: "CN1C2CC3C[C@H]1C(O3)C2O (some centres not stated)"
  ASSAY READOUT: "normalized growth"
  READING: "0.997 (inactive)"

Exercise: Reported normalized growth for "C/C=C(/C(=C/C)c1ccc(O)cc1)c1ccc(O)cc1" : what is it?
Solution: 0.979 (inactive)

Exercise: Again, but for "OC(CCN1CCCCC1)(c1ccccc1)c1ccccc1"
Solution: 0.992 (inactive)

Exercise: Please give the result for "CCCCOc1ccc(C(=O)CCN2CCCCC2)cc1" too.
Solution: 0.989 (inactive)

Exercise: // same read-out, input: CC(C)(CO)C(O)C(=O)NCCCO (configuration not stated)
Solution: 1.01 (inactive)

Exercise: Do the same for CCCCCC(=O)O[C@]1(C(C)=O)CCC2C3CCC4=CC(=O)CC[C@]4(C)C3CC[C@@]21C (some centres not stated) please
Solution: 1.01 (inactive)
